The reported measurements were obtained from the supplement of paper PMC10307832.

System: LU99A
protocol.text: relative viability (nuclei count vs DMSO), 5 days (fraction); higher = more cells survive
condition: first compound 20 µM
observable: relative viability
Just the number, please.

These solved cases illustrate the format of a correct answer.
• Cc1csc(=NC2CCCCC2)n1/N=C/c1ccc(O)c(O)c1O [MIM1] + C[C@]1(O)C[C@@H](c2nc(-c3ccc4ccc(-c5ccccc5)nc4c3)c3c(N)nccn32)C1 [Linsitinib] (partner 1 µM) = 0.284
• Cc1csc(=NC2CCCCC2)n1/N=C/c1ccc(O)c(O)c1O [MIM1] + CC(C)C[C@H](NC(=O)[C@H](Cc1ccccc1)NC(=O)c1cnccn1)B(O)O [Bortezomib] (partner 0.002 µM) = 0.341
• Cc1csc(=NC2CCCCC2)n1/N=C/c1ccc(O)c(O)c1O [MIM1] + CC(=O)c1c(C)c2cnc(Nc3ccc(N4CCNCC4)cn3)nc2n(C2CCCC2)c1=O [Palbociclib] (partner 0.5 µM) = 0.159

Proceed to the following item.
GET /values?readout=relative viability&item= Cc1csc(=NC2CCCCC2)n1/N=C/c1ccc(O)c(O)c1O [MIM1] + Nc1ncn([C@H]2C[C@H](O)[C@@H](CO)O2)c(=O)n1 [Decitabine] (partner 2 µM)
0.393

====

In this section, each of the compounds is paired with its reported relative viability.
Tested on: EKVX
protocol.text: relative viability (nuclei count vs DMSO), 5 days (fraction); higher = more cells survive
condition: first compound 2 µM
Just the number, please.

* CN1CCN(CCOc2cc(OC3CCOCC3)c3c(Nc4c(Cl)ccc5c4OCO5)ncnc3c2)CC1 [Saracatinib] + CC1(C)CCC(c2ccc(Cl)cc2)=C(CN2CCN(c3ccc(C(=O)NS(=O)(=O)c4ccc(N[C@H](CCN5CCOCC5)CSc5ccccc5)c(S(=O)(=O)C(F)(F)F)c4)cc3)CC2)C1 [Navitoclax] (partner 0.5 µM) | 0.357

Proceed to the following item.
Query for EKVX: what relative viability does the record show for CN1CCN(CCOc2cc(OC3CCOCC3)c3c(Nc4c(Cl)ccc5c4OCO5)ncnc3c2)CC1 [Saracatinib] + CS(=O)(=O)N1CCN(Cc2cc3nc(-c4cccc5[nH]ncc45)nc(N4CCOCC4)c3s2)CC1 [Pictilisib] (partner 1 µM) ?
0.175

====

System: PC-3 [JPC-3]
protocol.text: relative viability (nuclei count vs DMSO), 5 days (fraction); higher = more cells survive
condition: first compound 0.253 µM
In this section, each of the compounds is paired with its reported relative viability.

These solved cases illustrate the format of a correct answer.
- Nc1cccc2c1CN(C1CCC(=O)NC1=O)C2=O (centres undefined) [Lenalidomide] + NC(=O)Nc1cc(-c2cccc(F)c2)sc1C(=O)N[C@H]1CCCNC1 [AZD7762] (partner 0.2 µM): 0.888
- Nc1cccc2c1CN(C1CCC(=O)NC1=O)C2=O (centres undefined) [Lenalidomide] + Nc1ncn([C@H]2C[C@H](O)[C@@H](CO)O2)c(=O)n1 [Decitabine] (partner 2 µM): 0.848
- Nc1cccc2c1CN(C1CCC(=O)NC1=O)C2=O (centres undefined) [Lenalidomide] + N=C(N)NC(=N)NCCc1ccccc1 [Phenformin] (partner 250 µM): 0.482

GET /values?readout=relative viability&item= Nc1cccc2c1CN(C1CCC(=O)NC1=O)C2=O (centres undefined) [Lenalidomide] + O=C(c1cc(Cc2n[nH]c(=O)c3ccccc23)ccc1F)N1CCN(C(=O)C2CC2)CC1 [Olaparib] (partner 8 µM)
1.12

====

In this section, each of the molecules is paired with its reported relative viability.
System: NCI-H1915
protocol.text: relative viability (nuclei count vs DMSO), 5 days (fraction); higher = more cells survive
condition: first compound 0.8 µM
Just the number, please.

• Nc1cccc2c1CN(C1CCC(=O)NC1=O)C2=O (stereo unspecified) [Lenalidomide] + C[C@]1(O)C[C@@H](c2nc(-c3ccc4ccc(-c5ccccc5)nc4c3)c3c(N)nccn32)C1 [Linsitinib] (partner 1 µM) = 1.12
• Nc1cccc2c1CN(C1CCC(=O)NC1=O)C2=O (stereo unspecified) [Lenalidomide] + COc1cc2c(Oc3ccc(NC(=O)C4(C(=O)Nc5ccc(F)cc5)CC4)cc3F)ccnc2cc1OCCCN1CCOCC1 [Foretinib] (partner 0.25 µM) = 1.03

GET /values?readout=relative viability&item= Nc1cccc2c1CN(C1CCC(=O)NC1=O)C2=O (stereo unspecified) [Lenalidomide] + COc1cccc2cc(-c3nc([C@H]4CC[C@H](C(=O)O)CC4)n4ncnc(N)c34)[nH]c12 [OSI-027] (partner 0.5 µM)
0.653

GET /values?readout=relative viability&item= Nc1cccc2c1CN(C1CCC(=O)NC1=O)C2=O (stereo unspecified) [Lenalidomide] + O=C(c1cc(Cc2n[nH]c(=O)c3ccccc23)ccc1F)N1CCN(C(=O)C2CC2)CC1 [Olaparib] (partner 8 µM)
0.263

GET /values?readout=relative viability&item= Nc1cccc2c1CN(C1CCC(=O)NC1=O)C2=O (stereo unspecified) [Lenalidomide] + CC(=O)Nc1cccc(-n2c(=O)n(C3CC3)c(=O)c3c(Nc4ccc(I)cc4F)n(C)c(=O)c(C)c32)c1 [Trametinib] (partner 0.02 µM)
0.319

GET /values?readout=relative viability&item= Nc1cccc2c1CN(C1CCC(=O)NC1=O)C2=O (stereo unspecified) [Lenalidomide] + Cc1nc(Nc2ncc(C(=O)Nc3c(C)cccc3Cl)s2)cc(N2CCN(CCO)CC2)n1 [Dasatinib] (partner 0.075 µM)
0.329

====

Tested on: NCI-H1650
protocol.text: relative viability (nuclei count vs DMSO), 5 days (fraction); higher = more cells survive
condition: first compound 0.02 µM
In this section, each of the compounds is paired with its reported relative viability.

These solved cases illustrate the format of a correct answer.
* CCNC(=O)c1noc(-c2cc(C(C)C)c(O)cc2O)c1-c1ccc(CN2CCOCC2)cc1 [Luminespib] + Cc1nc(Nc2ncc(C(=O)Nc3c(C)cccc3Cl)s2)cc(N2CCN(CCO)CC2)n1 [Dasatinib] (partner 0.075 µM) | 0.162
* CCNC(=O)c1noc(-c2cc(C(C)C)c(O)cc2O)c1-c1ccc(CN2CCOCC2)cc1 [Luminespib] + Nc1ncn([C@H]2C[C@H](O)[C@@H](CO)O2)c(=O)n1 [Decitabine] (partner 2 µM) | 0.267
* CCNC(=O)c1noc(-c2cc(C(C)C)c(O)cc2O)c1-c1ccc(CN2CCOCC2)cc1 [Luminespib] + COc1cccc2cc(-c3nc([C@H]4CC[C@H](C(=O)O)CC4)n4ncnc(N)c34)[nH]c12 [OSI-027] (partner 0.5 µM) | 0.163

GET /values?readout=relative viability&item= CCNC(=O)c1noc(-c2cc(C(C)C)c(O)cc2O)c1-c1ccc(CN2CCOCC2)cc1 [Luminespib] + CS(=O)(=O)CCNCc1ccc(-c2ccc3ncnc(Nc4ccc(OCc5cccc(F)c5)c(Cl)c4)c3c2)o1 [Lapatinib] (partner 2 µM)
0.177

====

System: NCI-H2087
protocol.text: relative viability (nuclei count vs DMSO), 5 days (fraction); higher = more cells survive
condition: first compound 2.53 µM
In this section, each of the compounds is paired with its reported relative viability.

- Nc1cccc2c1CN(C1CCC(=O)NC1=O)C2=O (stereo not given) [Lenalidomide] + CC(=O)c1c(C)c2cnc(Nc3ccc(N4CCNCC4)cn3)nc2n(C2CCCC2)c1=O [Palbociclib] (partner 0.5 µM): 0.192
- Nc1cccc2c1CN(C1CCC(=O)NC1=O)C2=O (stereo not given) [Lenalidomide] + CCNC(=O)c1noc(-c2cc(C(C)C)c(O)cc2O)c1-c1ccc(CN2CCOCC2)cc1 [Luminespib] (partner 0.01 µM): 0.14
- Nc1cccc2c1CN(C1CCC(=O)NC1=O)C2=O (stereo not given) [Lenalidomide] + N=C(N)NC(=N)NCCc1ccccc1 [Phenformin] (partner 250 µM): 0.505
- Nc1cccc2c1CN(C1CCC(=O)NC1=O)C2=O (stereo not given) [Lenalidomide] + CC1(C)CCC(c2ccc(Cl)cc2)=C(CN2CCN(c3ccc(C(=O)NS(=O)(=O)c4ccc(N[C@H](CCN5CCOCC5)CSc5ccccc5)c(S(=O)(=O)C(F)(F)F)c4)cc3)CC2)C1 [Navitoclax] (partner 0.5 µM): 0.962

GET /values?readout=relative viability&item= Nc1cccc2c1CN(C1CCC(=O)NC1=O)C2=O (stereo not given) [Lenalidomide] + CC(=O)Nc1cccc(-n2c(=O)n(C3CC3)c(=O)c3c(Nc4ccc(I)cc4F)n(C)c(=O)c(C)c32)c1 [Trametinib] (partner 0.02 µM)
0.28

====

In this section, each of the compounds is paired with its reported relative viability.
System: LXF-289
protocol.text: relative viability (nuclei count vs DMSO), 5 days (fraction); higher = more cells survive
condition: first compound 0.253 µM
Just the number, please.

• Nc1cccc2c1CN(C1CCC(=O)NC1=O)C2=O (centres undefined) [Lenalidomide] + N=C(N)NC(=N)NCCc1ccccc1 [Phenformin] (partner 250 µM) = 0.536
• Nc1cccc2c1CN(C1CCC(=O)NC1=O)C2=O (centres undefined) [Lenalidomide] + Cc1nc(NC(=O)N2CCC[C@H]2C(N)=O)sc1-c1ccnc(C(C)(C)C(F)(F)F)c1 [Alpelisib] (partner 2 µM) = 1.05
• Nc1cccc2c1CN(C1CCC(=O)NC1=O)C2=O (centres undefined) [Lenalidomide] + CC(=O)Nc1cccc(-n2c(=O)n(C3CC3)c(=O)c3c(Nc4ccc(I)cc4F)n(C)c(=O)c(C)c32)c1 [Trametinib] (partner 0.02 µM) = 0.661
• Nc1cccc2c1CN(C1CCC(=O)NC1=O)C2=O (centres undefined) [Lenalidomide] + CS(=O)(=O)CCNCc1ccc(-c2ccc3ncnc(Nc4ccc(OCc5cccc(F)c5)c(Cl)c4)c3c2)o1 [Lapatinib] (partner 2 µM) = 0.928
• Nc1cccc2c1CN(C1CCC(=O)NC1=O)C2=O (centres undefined) [Lenalidomide] + CC1(C)CCC(c2ccc(Cl)cc2)=C(CN2CCN(c3ccc(C(=O)NS(=O)(=O)c4ccc(N[C@H](CCN5CCOCC5)CSc5ccccc5)c(S(=O)(=O)C(F)(F)F)c4)cc3)CC2)C1 [Navitoclax] (partner 0.5 µM) = 0.963
• Nc1cccc2c1CN(C1CCC(=O)NC1=O)C2=O (centres undefined) [Lenalidomide] + CC(C)C[C@H](NC(=O)[C@H](Cc1ccccc1)NC(=O)c1cnccn1)B(O)O [Bortezomib] (partner 0.002 µM) = 0.958
• Nc1cccc2c1CN(C1CCC(=O)NC1=O)C2=O (centres undefined) [Lenalidomide] + Cc1nc(Nc2ncc(C(=O)Nc3c(C)cccc3Cl)s2)cc(N2CCN(CCO)CC2)n1 [Dasatinib] (partner 0.075 µM) = 0.235
• Nc1cccc2c1CN(C1CCC(=O)NC1=O)C2=O (centres undefined) [Lenalidomide] + O=C(CCCCCCC(=O)Nc1ccccc1)NO [Vorinostat] (partner 1 µM) = 0.812

GET /values?readout=relative viability&item= Nc1cccc2c1CN(C1CCC(=O)NC1=O)C2=O (centres undefined) [Lenalidomide] + Nc1ncn([C@H]2C[C@H](O)[C@@H](CO)O2)c(=O)n1 [Decitabine] (partner 2 µM)
0.388
